OBSERVATION TYPE: melting point

MOLECULAR STRING | RESULT
CN(Cc1ccc(-c2noc(C(F)(F)F)n2)cc1)S(=O)(=O)N1CCOCC1 | 118 to 120 °C
CON(Cc1ccc(-c2noc(C(F)(F)F)n2)cc1)S(C)(=O)=O | 94 to 96 °C
CN(Cc1ccc(-c2noc(C(F)(F)F)n2)cc1)S(=O)(=O)Cc1ccccc1 | 109 to 111 °C

====

Items are presented alongside their recorded melting point.

MOLECULAR STRING | melting point
CCS(=O)(=O)N(Cc1ccc(-c2noc(C(F)(F)F)n2)cc1)C1CC1 | 86 to 88 °C
O=S(=O)(Cc1ccccc1)Nc1ccc(-c2noc(C(F)(F)F)n2)cc1 | 125 to 135 °C
CN(Cc1ccc(-c2noc(C(F)(F)F)n2)cc1)S(=O)(=O)C1CC1 | 102 to 105 °C
CCS(=O)(=O)NCc1ccc(-c2noc(C(F)(F)F)n2)cc1 | 127 to 129 °C
CCN(Cc1ccc(-c2noc(C(F)(F)F)n2)cc1F)S(C)(=O)=O | 90 to 93 °C
CCS(=O)(=O)N(Cc1ccc(-c2noc(C(F)(F)F)n2)cc1)OC | 44 to 46 °C
O=S(=O)(C1CC1)N(Cc1ccc(-c2noc(C(F)(F)F)n2)cc1)C1CC1 | 90 to 92 °C

Sourced from patent US20210101874A1
